# SYSTEM UNDER TEST: human MC4R (Homo sapiens)
# Construct: expressed in transfected cells
# ASSAY NAME: Functional cAMP assay (CisBio HTRF) in BHK cells expressing human MC4R
# Type: cell-based
# CONDITION DETAILS: BHK cells expressing human MC4R; '>' = highest dose used with no response; read-out: MC4R cAMP EC50
pEC50: −log10 of the molar value. Positions of bridges follow the written chain, without caps; N, C: chain ends. Non-standard residues stand in square brackets, D forms with d. Residues, ends and D or L forms follow the SMILES beside them. Cit = NC(=O)NCCC[C@H](N)C(=O)O; Sar = CNCC(=O)O
# if value of pEC50 reaches 10, tag Yes; if it stays below, tag No

Sample answers from the record:
1) NCCCC[C@H]1NC(=O)[C@@H]2CSSC[C@H](NC(=O)[C@H](Cc3c[nH]c4ccccc34)NC(=O)[C@H](Cc3c[nH]cn3)NC(=O)[C@@H](Cc3ccccc3)NC(=O)[C@H](Cc3c[nH]cn3)NC1=O)C(=O)N[C@H](CCCCN)C(=O)N[C@@H](Cc1c[nH]cn1)C(=O)N[C@H](Cc1ccccc1)C(=O)N[C@@H](Cc1c[nH]cn1)C(=O)N[C@@H](Cc1c[nH]c3ccccc13)C(=O)N2 [Chem. 86] (cyclo(C[dK]H[dF]HWC[dK]H[dF]HW); disulfide 1-7) | No
2) C[C@@H]1NC(=O)[C@@H]2CSSC[C@H](NC(=O)[C@H](CCCNC(=N)N)NC(=O)[C@H](Cc3c[nH]cn3)NC(=O)[C@H](CCCCN)NC(=O)[C@H](CCCCN)NC1=O)C(=O)N1CCC[C@H]1C(=O)N[C@@H](Cc1c[nH]cn1)C(=O)N[C@H](Cc1ccccc1)C(=O)N[C@@H](Cc1c[nH]cn1)C(=O)N[C@@H](Cc1c[nH]c3ccccc13)C(=O)N2 [Chem. 95] (cyclo(AKKHRCPH[dF]HWC); disulfide 6-12) | No

Qu. Hello, I need to know if C[C@@H]1NC(=O)[C@@H]2CSSC[C@H](NC(=O)[C@H](CCCNC(=N)N)NC(=O)[C@H](CCCCN)NC(=O)[C@H](CCCCN)NC(=O)[C@H](CCCCN)NC1=O)C(=O)N(C)CC(=O)N[C@@H](Cc1c[nH]cn1)C(=O)N[C@H](Cc1ccccc1)C(=O)N[C@@H](Cc1c[nH]cn1)C(=O)N[C@@H](Cc1c[nH]c3ccccc13)C(=O)N2 [Chem. 74] (cyclo(AKKKRC[Sar]H[dF]HWC); disulfide 6-12) has measured pEC50 not below 10. Thanks!
Ans. No

Qu. Hello, I need to know if C[C@@H]1NC(=O)[C@@H]2CSSC[C@H](NC(=O)[C@H](CCCNC(=N)N)NC(=O)[C@H](CCCCN)NC(=O)[C@H](CCCCN)NC(=O)[C@H](CCCCN)NC1=O)C(=O)N1CCC[C@H]1C(=O)N[C@@H](Cc1c[nH]cn1)C(=O)N[C@H](Cc1ccccc1)C(=O)N[C@@H](CCCNC(N)=O)C(=O)N[C@@H](Cc1c[nH]c3ccccc13)C(=O)N2 [Chem. 72] (cyclo(AKKKRCPH[dF][Cit]WC); disulfide 6-12) has measured pEC50 not below 10. Thanks!
Ans. Yes

====

# SYSTEM UNDER TEST: human MC4R (Homo sapiens, UniProt P32245)
# Construct: expressed in transfected cells
# Sequence (P32245 whole entry): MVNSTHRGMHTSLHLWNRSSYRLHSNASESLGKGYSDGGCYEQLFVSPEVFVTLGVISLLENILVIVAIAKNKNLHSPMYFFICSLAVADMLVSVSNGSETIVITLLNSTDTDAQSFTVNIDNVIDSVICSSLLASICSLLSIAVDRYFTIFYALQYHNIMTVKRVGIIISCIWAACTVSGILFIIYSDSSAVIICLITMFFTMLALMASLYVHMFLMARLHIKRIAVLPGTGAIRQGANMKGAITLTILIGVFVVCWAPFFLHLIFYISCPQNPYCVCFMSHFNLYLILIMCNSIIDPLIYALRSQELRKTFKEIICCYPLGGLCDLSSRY
# ASSAY NAME: Functional cAMP assay (CisBio HTRF) in BHK cells expressing human MC4R
# Assay type: cell-based
# CONDITION DETAILS: BHK cells expressing human MC4R; '>' = highest dose used with no response; read-out: MC4R cAMP EC50
Starred links: 1 amine or outer side, 2 acyl side, 3 side chain; linkers in the order of their positions; H or OH if unused. Positions of bridges follow the written chain, without caps; N, C: chain ends. Non-standard residues stand in square brackets, D forms with d. Residues, ends and D or L forms follow the SMILES beside them. Cit = NC(=O)NCCC[C@H](N)C(=O)O; d(hCys) = N[C@H](CCS)C(=O)O; X1 = C(CN[*:2])CS[*:1]
OUTCOME MEASURE: pEC50
// field semantics: pEC50 = negative decimal log of concentration (mol/L)

The following molecules have reported results that may help.
1. CC(C)[C@@H]1NC(=O)[C@@H]2CSSC[C@H](NC(=O)[C@H](Cc3c[nH]c4ccccc34)NC(=O)[C@H](CCCNC(=N)N)NC(=O)[C@@H](Cc3ccccc3)NC(=O)[C@H](Cc3c[nH]cn3)NC1=O)C(=O)N[C@@H](C(C)C)C(=O)N[C@@H](Cc1c[nH]cn1)C(=O)N[C@H](Cc1ccccc1)C(=O)N[C@@H](CCCNC(=N)N)C(=O)N[C@@H](Cc1c[nH]c3ccccc13)C(=O)N2 [Chem. 36] (cyclo(CVH[dF]RWCVH[dF]RW); disulfide 1-7) | 10.40
2. C[C@@H]1NC(=O)[C@@H]2CSSC[C@H](NC(=O)[C@H](Cc3c[nH]c4ccccc34)NC(=O)[C@H](CCCNC(N)=O)NC(=O)[C@@H](Cc3ccccc3)NC(=O)[C@H](Cc3c[nH]cn3)NC1=O)C(=O)N[C@@H](C)C(=O)N[C@@H](CCCCN)C(=O)N[C@@H](CCCCN)C(=O)N[C@@H](CCCCN)C(=O)N[C@@H](Cc1c[nH]c3ccccc13)C(=O)N2 [Chem. 48] (cyclo(AH[dF][Cit]WCAKKKWC); disulfide 6-12) | 10.22

Qu. I'd like to know its pEC50. The molecule in question is CC(=O)N[C@@H](Cc1c[nH]cn1)C(=O)N[C@H](Cc1ccccc1)C(=O)N[C@@H](CCCNC(=N)N)C(=O)N[C@@H](Cc1c[nH]c2ccccc12)C(=O)N[C@@H](C)C(=O)N[C@@H]1CCSSCCCNC(=O)[C@H](C)NC(=O)[C@H](Cc2c[nH]c3ccccc23)NC(=O)[C@H](CCCNC(=N)N)NC(=O)[C@@H](Cc2ccccc2)NC(=O)[C@H](Cc2c[nH]cn2)NC1=O [Chem. 5] (Ac-H[dF]RWA[d(hCys)]H[dF]RWA; linker 6-C via X1)
Ans. 9.68
